Sourced from PubChem BioAssay

TEST SUMMARY: inhibitors of TNFa-induced NFkB p65 translocation, primary screen, imaging, HUVEC, MLSMR starter and 10KST1 sets (AID 438);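 also: compound added about 3h40 before a 20 min TNFalpha stimulation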;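 as to inhibition: signal is the nuclear over cytoplasmic p65 intensity ratio per well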
TEST PARAMETERS: HUVEC TNFa-induced p65 nuclear translocation; at 2 µM, stronger effect = higher value, 0% TNFa-plus-vehicle, 100% no-TNFa wells
ASSAY ENDPOINT: inhibition (%)

1) CCOc1ccc(NC(=O)CN2C(=O)C3CCCN3C2=O)cc1 (stereo unspecified)	-13.7
2) CCOC(=O)c1oc2cccc(OC(C)=O)c2c1C	8.1
3) COc1cc(NC(=O)Cc2ccccc2OC)cc(OC)c1	-4.8
4) CCS(=O)(=O)N1CCCC(c2nc(-c3cccc(OC)c3)no2)C1 (stereo unspecified)	-52
5) CCN(CC)c1ccc(C2Nc3cccc4cccc(c34)N2)c(O)c1	2.2
6) CCc1cc(=O)oc2cc(C)c(CN3CCCC3)c(O)c12	-6.3
7) O=C(c1ccco1)N1CCN(c2ccc(Cl)cc2)CC1	-5.1
8) COCCNC(=O)C(c1ccc(O)cc1)N(Cc1ccco1)C(=O)CCC(=O)Nc1nccs1 (stereo unspecified)	6.7
9) O=C(NCCc1ccccc1)/C(=N\O)c1ccccc1	-5.6
10) CCn1c(C(=O)N2CCC(C(=O)N3CCN(c4ccccn4)CC3)CC2)cc2sccc21	-12.8
11) c1ccc(-n2c(Sc3cnccn3)nnc2-c2cccs2)cc1	-24.6

* * *

TEST SUMMARY: DUSP6 inhibitors restoring Erk phosphorylation by chemical complementation, primary imaging in DUSP6-transfected HeLa (AID 609)
TEST PARAMETERS: HeLa MKP-3 transfected, phospho-Erk imaging KS statistic; measured here: cell density z-score; at 10 µM; cells stimulated with TPA for 15 min
# if value of z-score reaches -1, tag class 1; if it stays below, tag class 0

1) CCOC(=O)c1[nH]c2ccc(C)cc2c1N=CN(CC)CC	class 0
2) COC(=O)c1sc2nc(N3CCCCC3)c3c(c2c1N)CC(C)(C)N(C)C3	class 1
3) CC1(C)Cc2c(C#N)c(SCc3nc4ccccc4[nH]3)nc(N3CCOCC3)c2CO1	class 0
4) c1ccc2c(c1)[nH]c1c(N3CCSCC3)ncnc12	class 1
5) COC(=O)c1ccc(Cn2c(O)c(N=O)c3ccccc32)o1	class 0
6) Cc1c(C)c2cc(Cl)c(O)c(CN3CCCC(C)C3)c2oc1=O (stereo unspecified)	class 1
7) Cc1cc(N2C(=O)C(=O)/C(=C(/O)c3ccccc3)C2c2cccs2)no1 (stereo unspecified)	class 1
8) CCOc1ccc(C2=Nn3c(nnc3-c3ccccc3OC)SC2)cc1	class 0
9) COc1ccc(C(=O)OC(C)CN2CCN(C)CC2)cc1OC (stereo unspecified)	class 0
10) COCCCNc1nc2c(c(=O)[nH]c(=O)n2C)n1CC(O)COc1ccccc1 (stereo unspecified)	class 1

* * *

TEST SUMMARY: inhibitors of TNFa-induced NFkB p65 translocation, primary screen, imaging, HUVEC, MLSMR starter and 10KST1 sets (AID 438);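 also: compound added about 3h40 before a 20 min TNFalpha stimulation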
TEST PARAMETERS: HUVEC TNFa-induced p65 nuclear translocation; measured here: nuclei count (cytotoxicity indicator), at 2.08 µM
Response key: MET means cell count >= 600; NOT MET means cell count < 600.

1) Nc1nc2ccccc2n1C(=O)CCc1ccccc1	MET
2) CCOC(=O)/C=c1\s/c(=C(\C#N)C(=O)OCC)n(-c2ccccc2)c1=O	MET
3) CC1(C)Cc2ccccc2-c2c1c(=O)n(-c1ccccc1)c1nnnn21	MET
4) CC1(C(=O)CSc2n[nH]c(-c3ccccc3Cl)n2)CCC(=O)O1 (configuration not stated)	MET
5) CCSc1nnc(NC(=O)NC(CC)(C(F)(F)F)C(F)(F)F)s1	MET
6) CCCOC(=O)C1C2C=CC3(CN(c4cccc(Cl)c4)C(=O)C13)O2 (configuration not stated)	MET
7) O=C(CN(CCc1ccccc1)C(=O)CNS(=O)(=O)c1ccccc1)NCC1CCCO1 (configuration not stated)	NOT MET
8) CCCN1CCN(CCCNC(=O)C2CCCN(c3nc4ccc(OCC)cc4s3)C2)CC1 (configuration not stated)	NOT MET
9) c1coc(-c2nnc(NC3=NCCC3)o2)c1	NOT MET
10) CCN(CC)CCCN1C(=O)C(=O)/C(=C(/O)c2ccc3c(c2)CC(C)O3)C1c1cccnc1 (configuration not stated)	NOT MET
11) O=C(C/C(=N/O)c1ccccc1O)C(F)F	NOT MET
12) CCOC(=O)C1(c2ccccc2)NC(c2ccc(N(C)C)cc2)C2C(=O)N(C)C(=O)C21 (configuration not stated)	NOT MET
13) CN1/C(=C\C(=O)C(F)F)C(C)(C)c2ccccc21	NOT MET
14) O=C(COc1ccccc1)Nc1nc2ccccc2[nH]1	MET
15) c1ccc(-c2ccccc2OCCn2cncn2)cc1	MET
16) COc1ccc(N2CC(C(=O)Nc3ccc(F)cc3F)CC2=O)cc1 (configuration not stated)	NOT MET
17) Cc1ccc2cc(CNC(C)(C)C)c(=O)[nH]c2c1	MET
18) C=CCn1c(SCC(=O)c2ccc(OC)cc2)nnc1C(C)NC(=O)c1cccs1 (configuration not stated)	MET
